Provide the recorded protease stability score for the entries that follow.
experiment: protease stability score; higher = more stable; yeast display proteolysis, trypsin and chymotrypsin;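 note: log10 excess protease needed over predicted unfolded state with 0 meaning unfolded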
Form: value (number only, do not type unit).

Prompt: Report protease stability score for `DEKDMEQQDRVFRHGNEKKLEDLVDEDARVEVGNRRYHGREQVVRFFQQQVKQVDHRTIRSVKLTGDKFDAVLQVVINGQTYTYRFKAKVHNGKVKVLRVEFTDPQREKEFEKQLD` please.
Response: 0.206

Prompt: Ok, now `DEESMHRMVTDLMHIIDSGNPDEAVKLADPNVQVTYGDRKYHGQDAVRDYIRELKKRVDTVNLKRVELSGEKATATAVFNVNGNRVDVEMTVTAQNGKIQSIDASVRDPDQKRKEKK`
Response: 0.8

Prompt: Same thing, different sequence: `DEDKEAKKAIDDWKKIIDTNDEDQARRMFDPNAKVTIGDKTYHGREQASTLFHQLMKRFDHMSFHVDKVRVHNGQVDAVVTARFNHNGRTEEMRLRFRFDDHNGQLVIVQIDWE`
Response: 1.35

Prompt: What about `DEHHEARKMIKHYFELLNQGNFEEAAKLFDEDAKVHVGDRTVNGREQIHDWFTRMRKQIDEFTVRLTKVEVSNGHVRVDFYYTKNHNGKSKSNSVDMIFQNNNGRIRAKSMQEK` ?
Response: -0.085

Prompt: Also check `DETETMEQMIQDLHRALQQGDHETVKELIPPDAEMQIGDKTWHGKEQVARHLVEHAQTADHIDIDIKSIKIEGNKLVVNLKVVYDRNGHRETQTYELMVDVNNGEFRIVEQRQP`
Response: 0.921

Prompt: Query `DSDEIRKFFQQLHTNDEKKLRRNFDKDARFEVGDKDYHGQENAQEAMAQIFQRADHVTYKTVKVEGDKVDMNLQIQVNGKQFDLRLHAKFDNGRLKEASLHVTSEEQHTEVLEMLS` next
Response: 0.643

Prompt: Moving on to the next sequence: `DEKAQTRVQDYLRALQNGDHKRLREYMDENVHLRVGDKEVHGRTTAANEIVKEVRNQEMSMSIKRVRASENHVQMEVVVQVEHNGKPREFSFQLNFKLENGQAKEIKYKIDPTVLKNIRK`
Response: 0.507

Prompt: Next up: `DEEHELDMARKMFEAVKQGDEEEVQRNAPPDVRMEIGDRTYHGREQVRKAAKEFQKRVDHMQLDSVKLHNGDVHAKVILNINGKNNDVVVQIHIDNGRITELRFKTS`
Response: -0.06

Prompt: Repeat with `DEEEAHKVKDVVENGDPDTLQNMADKDATARYGDKQVHGREQVRTAIKLWMDHVDHIDIRNIHVEGNKVNVDAVFNVNGRNLNVRFRMEVHNGKIKSFELQATDERIRETLERILS`
Response: 1.02

Prompt: For `DDENVEIAEKIVKAEQSGDEDHLRELADPNARFHVGDKHVSGMEKFLKDFQHEFEELRFSIKVTSVTQSNGKVHMTATATRHRNGRPDSFTANRRFLFHNGKAKEVSQDNRK` then?
Response: -0.352

Prompt: // next record `DDEVKKEAEKMVEIIMHGDPDKVRNQFDPNAKMQIGDKELHGQEQLRDHLKRMNDHLRIDLKSVSARLDGNHIHLDVLFVKEHNGKPEEQRVEFVADIHNGKIVSASVEHVD`
Response: 0.54

* * *

experiment: protease stability score; higher = more stable; yeast display proteolysis, trypsin and chymotrypsin;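 note: log10 excess protease needed over predicted unfolded state with 0 meaning unfolded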
assay_metric: protease stability score
Lab note: write the figure by itself, no unit.

Prompt: May I ask what protease stability score has been recorded for `EDKAKTLLQQYMEAVHQGDPKQVEEMLDPNAQVVIGDKSVRGQNQIQQMVRKLHQHARIDIHVKDLKADGNNVHLTFSQKVEVNGRPERDEATATMVVDNGRAQYLQIEMDETFQRQLEK` ?
Response: -0.341

Prompt: Next sequence up: `DENDTARKIIKTLLDIMREGDEDKLRDQMDPNVRADVGDKTVHGREHAAKFLAHIVKRADHISITLKSLHNHNGRLRMQAEVRIVHNGRTERVTLEMVFRDHNGKLLIERMKYG`
Response: 2.51

Prompt: Entry `DEEDNKTAKKLAKTGDPDEFAEQADEDVHIVVGDFEVHGRDELRKLMKRLKDHIDHKEIKRLRVHNGHVDLKFKAVFNGQEMEVSVILTARNGKIKRLEFRVRDDHAHELLEHLLK` please
Response: 1.03

Prompt: Try `DEDKEAEKLVKEMQENQRQGDEEKWANLFDEDAHFRIGDKHLHGRQDLQDNVRKWRHNYDHLSVRMKDLKHDGDKARLHVVITQRHNGKNDSMTVDIVIVKQNGRVRIKNFQAP` next.
Response: 0.513

Prompt: Try this sequence too: `DDRDAERLVELWKTGDPDKFANHMRDDVRVQIGDKSVRGRDEAHKILERLRQQIDHWEIKDYEVHGERVIIHAVATVNGRHLNFVIVVQMHNGRIQSVQYKVTSEDDQHRIKKLLD`
Response: 0.326

* * *

test: protease stability score; higher = more stable; yeast display proteolysis, trypsin and chymotrypsin;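 note: log10 excess protease needed over predicted unfolded state with 0 meaning unfolded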
assay_metric: protease stability score
Number only, no unit.

Prompt: // protease stability score lookup, key: `ERERNQKLAEIFAQAVETGDPEQAQKMAPPDVKAQVGDHQFRGREEIHKMIETIRRRADHARLKDMTVDGDKITIVVQFNVNGKEVNVVFHITVRNGVATEIELRSK`
Response: 1.26

Prompt: What would you report for `DEDDWKKFMKFLKNLRNGDDEQAAKQADPNARFEYGDETIHGREHFRKHVKDTKDHARYSFNLKDYRVTPGRIEARMDVHSMENGRPDSNDVVLILSLSNGRIKKVEMKQVS` ?
Response: 0.063

Prompt: // next record `DDRLREVFEHIVELFKTGNPEELSRNVDPNARYQYGDKELHGRDHYRREVKDLIDTMRYEQEVDKVQKRGEKVRIEAEARHKENGRPNEFTFVIEFKAHNGKVKHEVQHESS`
Response: -0.15

Prompt: Also `DEDLKKRFKRMLRNLQNNNEENAHELMDPNARWRYGDKVLHGHEQLIEEWKRIHDRMRVEYKSVEVTASGDKVVVEIVFTRHKNGSPDSDNTRWKAVYNNGKLKDMMVTEDG` , if possible.
Response: 0.637

Prompt: Note, next up: `DEEAMKVFEEIMRAIEQGDPDRIIENADEDVRFDVGDKRLHGREKAAKDLVDFLHHQRTHIRSYDTSVSGEKLTLDVDMVNQNNGNPNSKRYTVDAHVHNGKLKSVKETDDQ`
Response: -0.27

Prompt: Also check `DEDIRRHVKEFIEALRTGNEDQLRTLADKNVRFEYGDKEIHGRETYAKHVKKLKEESSIEIKDYKVTAQGNTVSAKIRQVVNHNGKPQHHVVILQAVFHNGKLKEMRTKDDG`
Response: -0.26

Prompt: Same question, `DESVTEQANKMLDNIEKNNPEKVREQVDPNAKLQIGDKTLSGREHVQKQVEREMKDISVTRDLKSVNVRNGRAVFDMTVDFDVNGKPIHAHQVMEVQATNGRIKSVTYKIDTEELRKIDK` this time
Response: -0.499

Prompt: What would you report for `DEEDAKRVEEMLEALRTGDWKKATDMADPDARFQIGDKRYHGMHQVAREWKNQYDQMRIEINVKEWNIHNGRVDLKFEQKNDHNGKPDNFRASATFQFHNGQLVEAQYQRDS` ?
Response: 0.634

Prompt: # iterate: `DEEAQRLLEKAMKALEQNNPQQFVNLLDPNATMIVGDKVYHGRESARKALDDIRSTMRVEVKDVKASAQGDKVQARMRVILDHNGKPSDRTQNITVRVHNGKMTSVELKTDT`
Response: 0.88

Prompt: Now try `DHEEVRQYEDAVEAEETGDKEKLQRYMDPNVKFHVGDKTLHGREDVARKQKEDRERIRIRYKSMDIKVRGDKVDFKMSFVVNHNGRPQRETRTFTIDLHNGTFKHADWKESG` .
Response: -0.014

Prompt: Please give the result for `DEEAAKLMRKMQQAVRSNNPEEVQRMMDPNASAKYGDKEVHGREEIATHLVKETRRMHIHYDVEHITVDNGRADVTADVQQEHNGKPERRKYKVHIEVRGDKLVHLRFETRK` too.
Response: 0.06

Prompt: Consider next the sequence `DEKQLHRVRHFLEVVRQGDEDNLREMADPNVRMVVGDKQFHGREEAVKFLVHKAKELRIDVKFKTINVRGDKVKAVAEMTENQNGKPHHAKLTWEIQMSNGKIQQLDFKLST` in the same way.
Response: 0.275

Prompt: Further, for `DENIKRTMSDFLHAVRDGDEDKLFKLADPNARMKYGDKDVHGMEEIVHQIKRLRRDASVDIHIKRVEVDGNRVDIKLEVVVNVNGRPQRYRFEIKVRFHNGRINALENNIDEDQLRKIES` ?
Response: 1.21

Prompt: Repeat for the following sequence: `EEQLKHRLRTYIEALQTGDEKKMVEMVDPNAHIRVGDSTIHGREELRKWVQHLQREIRFQVKIRSIDVSGEHLDVKAEVRYDFNGQPVRDTLNISAEASNGTFTDLRLHIDEDVLRKIKS`
Response: 1.16

Prompt: Do the same for `DREERKKIAQTILKIFETGDHKKFKRQIDPNVEVVVGDRTYKGRTQATKAFNEIQEKVDEVDVKTVHYKGDHAIVDAVLVINGRRVTVYFHLTIHNGRVKSISMQFRDEEDERKFRG` please
Response: 0.367

Prompt: Also `DEELAKKVLEKWVKVVDKGDDQAVKKLYKPNGTWINGDEETQGAEKVVKMMQKAQKKGDQFQVRKAKVEGNHVEFHYDLRIGDQTATFTVKVQVQGGRVEEVKVEVDKKAKEIITKG` ?
Response: 0.06

Prompt: Please answer likewise for `DEDRLRELVKKFVDAMRTNDEDRIREMMDKDVRVEVGDTVIKGHNEAKKWAKRLRERADHIHFDSVHVQGDRAEVDFQVRHNGKTDRNVLVLRMNNGRVQELRVHTK`
Response: 1.81

Prompt: Next record, please: `DEEDERRKVQDVAKAIKKGNEKELRKLADEDAKWRVGDTDLHGMERIQKDQATRRREVDNVEIKSVDVHNGRAHVTFVVNHNGKNVEVTNTADFKNGKVKNVQVDPSKVEELKK`
Response: -0.328

Prompt: Could you do the same for `DDRDEAHKLHEDYDRVMQTGDDDRVREMVDPNAKLRIGDQDLRGREELAELMKRQRDRADHVRIELRSVKVDGNKITMKLNFHLDHNGRTENTDATYHYEKDNGQWELKHAKVS` , please?
Response: -0.052

Prompt: Another sequence to check: `DDRNQAEKQVDEMRKIAKTGDEDRMADLFIDNPRFNVGDETYHGREQVVKYFRDTFRQVDHMHITLRRLSVHNGRVKAEFDVTLNRNGRETKDIFVVIQVKHNGTLRIESVHQK`
Response: 0.781

Prompt: Repeat with `DEENSKVYEEWLKAVHNGDPDQVRRQIDPNVKINVGEFDLKGRETVAEHVKKMKDEAHVDQDIHSIEIQGDKVRVDAQYSAEINGKPTSNHLDASVNVKNGQIKRVDVEFSK`
Response: -0.131

Prompt: Same again, this time with `DKEELSWAKKVLEKNNWESLAENADENAKVDVGDKRYSGREQVEHLMNQLRRRVDHVEYKHIDSKGDKLVADFQVVVNGREVKVRLQMNVHNGRVRHLTMEARNEDDKRFLKEMLD`
Response: 1.3
